system: Fibroblast; experiment: Multiplex assay against human fibroblast; assay type: toxicity, cell-based; details: 24 h, 1 µM, compound concentration 1 uM, replicate 1
measured.endpoint: Population Fragmented Nuclei (%)
Give the number; % is assumed, so skip it.

Ask: # lookup: Fibroblast Population Fragmented Nuclei (%), key = C[C@H]1[C@H]2CC[C@H]3[C@@H]4CC=C5C[C@@H](N(C)C)CC[C@]5(C)[C@H]4CC[C@]23CN1C
Reply: 13

Ask: Please look at CCCn1c(=O)c2[nH]c(C3CCCC3)nc2n(CCC)c1=O and tell me its recorded Population Fragmented Nuclei (%) on Fibroblast.
Reply: 13

Ask: Would you please give the reported Population Fragmented Nuclei (%) of CCCN1CCC[C@@H]2Cc3n[nH]cc3C[C@H]21.Cl [QUINPIROLE HYDROCHLORIDE] with Fibroblast?
Reply: 21

Ask: Provide measured Population Fragmented Nuclei (%) on Fibroblast for Cl.Clc1ccc2nsnc2c1NC1=NCCN1 [TIZANIDINE HYDROCHLORIDE] please.
Reply: 6

* * *

test system: HEK-293T; test: Multiplex assay against HEK293T; type: toxicity, cell-based; settings: human, 48 h, 1 µM, compound concentration 1 uM, replicate 1
measured.endpoint: Population Normal (%)

Ask: Report measured Population Normal (%); entry is Cc1ccc(/C(=C\CN2CCCC2)c2ccccn2)cc1 [TRIPROLIDINE]
Reply: 98%

Ask: Return the recorded Population Normal (%) value; entry: C[C@@H]1C[C@H]2[C@@H]3CCC4=CC(=O)C=C[C@]4(C)[C@@]3(F)[C@@H](O)C[C@]2(C)[C@@]1(O)C(=O)CO [DEXAMETHASONE]
Reply: 98%

Ask: State its Population Normal (%) for this compound: Cc1nc2ccc(Oc3ccc(F)cc3)cc2c(=O)n1C[C@H]1CCCN(C(C)C)C1.Cl
Reply: 98%

Ask: Provide only the value of recorded Population Normal (%) for COc1cc(NC(=O)CCN2CCC(OC(=O)Nc3ccccc3-c3ccccc3)CC2)c(Cl)cc1CNC[C@H](O)c1ccc(O)c2[nH]c(=O)ccc12 [BATEFENTEROL]
Reply: 96%

Ask: State, in one line, measured Population Normal (%) of CN1CCN2c3ncccc3Cc3ccccc3C2C1 (stereo not drawn) [MIRTAZAPINE]
Reply: 97%

Ask: Using known records, supply Population Normal (%) for O=C(NCC(=O)N1CC[C@H](N[C@H]2CC[C@@](O)(c3ccc(-c4ncccn4)cn3)CC2)C1)c1cccc(C(F)(F)F)c1 [PF-4136309]
Reply: 99%

Ask: Output Population Normal (%) of O=S(=O)(c1ccccc1)c1cnc2c(N3CCNCC3)cccc2c1 [INTEPIRDINE]
Reply: 95%

Ask: Answer with the recorded Population Normal (%) of CC1(COc2ccc3c(c2)ncn3-c2ccc3cccc(N4CCC(N)CC4)c3n2)COC1 [CRENOLANIB] only.
Reply: 98%

* * *

test system: Fibroblast; experiment: Multiplex assay against human fibroblast; type: toxicity, cell-based; conditions: 12 h, 10 µM, compound concentration 10 uM, replicate 2
Please provide measured Population Fragmented Nuclei (%) for the entries that follow.
Unit % implied. Number only.

Ask: System Fibroblast. Read-out Population Fragmented Nuclei (%). Item O=C(O)Cc1ccccc1Nc1c(Cl)cccc1Cl [DICLOFENAC] . Report value.
Reply: 36

Ask: Write down measured Population Fragmented Nuclei (%) (Fibroblast) for this compound. Cc1ccc(F)cc1C(=O)Nc1ccc(C(=O)N2Cc3cccn3Cc3ccccc32)c(Cl)c1 [LIXIVAPTAN]
Reply: 27

Ask: # assay system Fibroblast: give Population Fragmented Nuclei (%) of CC1(COc2ccc3c(c2)ncn3-c2ccc3cccc(N4CCC(N)CC4)c3n2)COC1 [CRENOLANIB]
Reply: 29

Ask: GET Population Fragmented Nuclei (%) | system: Fibroblast | item: CSc1ccccc1N1CCN(CCCCCC(=O)NC2CCCc3ccccc32)CC1.Cl (stereo not given)
Reply: 34

Ask: Please indicate recorded Population Fragmented Nuclei (%) of O=C(O)c1cc2ccccc2c(Cc2c(O)c(C(=O)O)cc3ccccc23)c1O [PAMOIC ACID] measured with Fibroblast.
Reply: 24
